The compounds below each have a reported Ki tested on Carbonic anhydrase 1 (Homo sapiens, UniProt P00915); the values come from various publications.
MEASURED PROPERTY: Ki (µM)

COMPOUND	MEASURED PROPERTY	VALUE MEASURED
NS(=O)(=O)c1ccc2c(c1)CCN2C(=O)c1cccc(Cl)c1	Ki	0.304

I = NS(=O)(=O)c1ccc(NC(=O)c2cc3sccc3n2Cc2ccccc2F)cc1
II = COc1ccc(C2=NN(c3ccc(S(N)(=O)=O)cc3)C(c3ccc4c(c3)OCO4)C2)cc1 (centres unmarked)
**Query** Compare I and II and name the one whose reported Ki is smaller. // return label of chosen record
**Result** I
